Cited source: patent US20090270495A1

# Tested on: PDE1
# Construct: IC50 PDE1 − calmodulin; other: without calmodulin; Ki PDE1 − calmodulin; other: with calmodulin; Ki PDE1 + calmodulin; other: versus literature value of 8-MM-IBMX; times more pot
# Experiment notes: PDE1 inhibition, enzyme isolated from smooth muscle of ox aorta
# Type: biochemical
# Assay setup: calmodulin state not stated in text; read-out: IC50 of inhibitory effect on PDE1 (running text)
pIC50: −log10 of the molar value.

- Compound: "COc1cc2c(c(O)c1OC)C(=O)CC(c1cc(O)ccc1O)O2 (stereo not shown) [Dioclein]"
  pIC50: 5.85

###

# Tested on: PDE1
# Construct: IC50 PDE1 − calmodulin; other: without calmodulin; Ki PDE1 − calmodulin; other: with calmodulin; Ki PDE1 + calmodulin; other: versus literature value of 8-MM-IBMX; times more pot
# Experiment notes: PDE1 inhibition, enzyme isolated from smooth muscle of ox aorta
# Assay type: biochemical
# Assay setup: without calmodulin; read-out: IC50 PDE1 − calmodulin
pIC50: −log10 of the molar value.
Measured parameter: pIC50

- Compound: "COc1cc2c(c(O)c1OC)C(=O)CC(c1cc(O)ccc1O)O2 (centres unmarked)"
  Measured parameter: "pIC50"
  Value reported: 5.61
- Compound: "COc1c(O)c(CC=C(C)C)c2c(c1O)C(=O)[C@H](O)[C@@H](c1ccccc1O)O2"
  Measured parameter: "pIC50"
  Value reported: 5.56
